- Test system: HEK-293T
- procedureDetails: Incucyte cell viability with HEK293T; also: unitless GR value; below 1 slowed growth and below 0 cell loss
- Type: toxicity, cell-based
- details: human, 6 h, 10 µM, compound concentration 10 uM, replicate number 1
Please enter Criterion met where Growth Rate is greater than or equal to 0.3, and Criterion not met where it is lower.

Example entries begin here.
molecule	labelValue
CN(C)CC#Cc1ccc2[nH]c3c(c2c1)-c1nc(N)ncc1CCC3	Criterion not met
COc1ccc(-c2coc3cc(O)cc(O)c3c2=O)cc1	Criterion met
CS(=O)(=O)c1ccc(-c2cnc(N)c(C(=O)Nc3ccccc3)n2)cc1	Criterion not met
O=C(Nc1ccc(-n2nc(C(F)(F)F)cc2C(F)(F)F)cc1)c1ccncc1F	Criterion not met

Hi team, for CCCCc1oc2ccccc2c1C(=O)c1cc(I)c(OCCN(CC)CC)c(I)c1.Cl [AMIODARONE HYDROCHLORIDE] , is the recorded Growth Rate at or above 0.3?
Criterion met

API: above_or_equal(metric=Growth Rate, cutoff=0.3) for item `O=C(N[C@H](Cc1ccccc1)C(=O)O)c1cccc(OCc2cccnc2)c1.O=CO`
Criterion met

Is the recorded value of Growth Rate equal to or greater than 0.3 for this molecule? `Cl.Cl.O=C1c2ccccc2C(Cc2ccncc2)(Cc2ccncc2)c2ccccc21`
Criterion met

Assess whether reported Growth Rate for CC(C)S(=O)(=O)c1ccccc1Nc1nc(N[C@@H]2CCCN(CCCCCCCNC(=O)COc3cccc4c3C(=O)N(C3CCC(=O)N(C)C3=O)C4=O)C2)ncc1Cl (some centres undefined) sits at 0.3 or higher.
Criterion not met

Item `CCN1CCN(Cc2ccc(NC(=O)c3ccc(C)c(NC(=O)c4cncc(-c5cccs5)c4)c3)cc2C(F)(F)F)CC1` with Growth Rate of 0.3 or above?
Criterion not met
